Target: human CCR8 (human, UniProt P51685 1-355)
Test: cell-based or functional assay
Attribute Measured: residual hCCL1 (100 nM) Gi2 response, protocol #2, mAb 0.08 µg/mL (%)
I only need the number, in %, no unit after it.

Before answering, review these 4 worked examples.
Binder	Unit Spec	Observed Result
anti-CCR8 mAb 1-4 (antibody, V domains shown, Murine hybridoma mAb) VH: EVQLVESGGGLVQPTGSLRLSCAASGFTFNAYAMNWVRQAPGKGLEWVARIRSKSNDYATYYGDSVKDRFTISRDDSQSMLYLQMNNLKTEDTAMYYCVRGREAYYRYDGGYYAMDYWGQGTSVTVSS VL: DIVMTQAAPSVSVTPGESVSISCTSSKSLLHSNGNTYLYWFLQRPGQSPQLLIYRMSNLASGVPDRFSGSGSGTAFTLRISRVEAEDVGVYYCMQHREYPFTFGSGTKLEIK	%	72
anti-CCR8 mAb 1-15 (antibody, V domains shown, Murine hybridoma mAb) VH: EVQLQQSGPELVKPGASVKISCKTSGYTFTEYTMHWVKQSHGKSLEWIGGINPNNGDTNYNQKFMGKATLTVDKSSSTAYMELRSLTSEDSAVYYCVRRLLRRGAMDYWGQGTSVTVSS VL: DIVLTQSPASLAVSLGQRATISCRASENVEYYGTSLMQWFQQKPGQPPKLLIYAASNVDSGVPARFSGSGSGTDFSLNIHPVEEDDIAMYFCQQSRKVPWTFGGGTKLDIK	%	99
anti-CCR8 mAb 1-14 (antibody, V domains shown, Murine hybridoma mAb) VH: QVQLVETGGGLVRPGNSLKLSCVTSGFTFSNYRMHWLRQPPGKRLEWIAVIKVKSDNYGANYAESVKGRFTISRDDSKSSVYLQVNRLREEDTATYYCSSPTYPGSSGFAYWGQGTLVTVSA VL: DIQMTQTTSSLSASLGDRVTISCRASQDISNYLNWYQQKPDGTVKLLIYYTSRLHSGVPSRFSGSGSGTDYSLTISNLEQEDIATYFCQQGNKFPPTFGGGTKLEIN	%	93
anti-CCR8 mAb 1-2 (antibody, V domains shown, Murine hybridoma mAb) VH: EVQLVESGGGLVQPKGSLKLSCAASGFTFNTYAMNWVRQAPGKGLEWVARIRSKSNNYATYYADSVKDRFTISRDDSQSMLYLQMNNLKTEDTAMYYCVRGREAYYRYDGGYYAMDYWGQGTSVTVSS VL: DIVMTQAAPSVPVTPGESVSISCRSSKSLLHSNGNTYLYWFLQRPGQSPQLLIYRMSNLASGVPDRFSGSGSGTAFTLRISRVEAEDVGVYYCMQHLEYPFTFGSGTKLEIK	%	60

Lab note: next binder to report on.
Query anti-CCR8 mAb 1-23 (antibody, human IgG1, kappa, V domains shown, Humanized mAb, human IgG1 / kappa) VH: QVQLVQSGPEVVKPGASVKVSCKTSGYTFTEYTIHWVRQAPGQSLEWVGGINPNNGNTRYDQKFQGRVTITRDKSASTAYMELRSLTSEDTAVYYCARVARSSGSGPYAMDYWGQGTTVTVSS VL: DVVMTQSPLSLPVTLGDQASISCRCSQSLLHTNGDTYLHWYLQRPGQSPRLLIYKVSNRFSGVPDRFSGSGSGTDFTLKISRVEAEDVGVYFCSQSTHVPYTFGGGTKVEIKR yields residual hCCL1 (100 nM) Gi2 response, protocol #2, mAb 0.08 µg/mL of 67
